# target.entity: T1, gC1qR, wild type, mature recombinant (receptor for the globular heads of C1q) (UniProt Q07021 74-282, biotin (biotinylated gC1qR in the ELISA; not said for the SPR surface))
# T1 construct: also called gC1qR-WT; biotinylated gC1qR
# T1 sequence (looked up): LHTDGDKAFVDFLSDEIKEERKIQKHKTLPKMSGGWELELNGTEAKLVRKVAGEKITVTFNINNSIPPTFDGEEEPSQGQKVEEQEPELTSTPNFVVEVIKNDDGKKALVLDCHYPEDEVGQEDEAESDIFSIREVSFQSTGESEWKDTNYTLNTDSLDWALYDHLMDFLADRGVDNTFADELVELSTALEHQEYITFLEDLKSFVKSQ
# procedure.summary: SPR; gC1qR-WT or gC1qR-ΔΔ immobilised; two-fold dilution series of analyte injected; reference-corrected sensorgrams fit to kinetic models; apparent KD
# experimental.context: both partners purified
measured.metric: Kd (mM)
Numbers only, in mM.

Kd for HKHGHGHGKHKNKGKKNGKH [synthetic peptide corresponding to the gC1qR-binding region from HK] is 2
